# STUDY_SYSTEM: alkaline phosphatase (Bos taurus)
# Sequence (P19111 20-506 limits assumed): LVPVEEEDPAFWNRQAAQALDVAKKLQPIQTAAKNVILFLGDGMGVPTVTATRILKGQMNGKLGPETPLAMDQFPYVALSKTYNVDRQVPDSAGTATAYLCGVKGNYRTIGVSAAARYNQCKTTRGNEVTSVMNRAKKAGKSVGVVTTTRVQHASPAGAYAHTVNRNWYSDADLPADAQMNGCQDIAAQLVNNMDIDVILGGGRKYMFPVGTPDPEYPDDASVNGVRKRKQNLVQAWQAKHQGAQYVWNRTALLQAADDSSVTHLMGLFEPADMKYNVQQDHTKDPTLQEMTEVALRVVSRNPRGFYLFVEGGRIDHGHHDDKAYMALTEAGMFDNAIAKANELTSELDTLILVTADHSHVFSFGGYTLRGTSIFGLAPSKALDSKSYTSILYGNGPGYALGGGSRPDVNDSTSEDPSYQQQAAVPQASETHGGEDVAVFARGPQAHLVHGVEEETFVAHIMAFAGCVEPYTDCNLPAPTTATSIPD
# TEST_DESCRIPTION: Chemiluminescent signal and signal:background with enhancer polymers (Example XVII)
# Type: biochemical
# RUN_CONDITIONS: polymer S/TMQ(1:4); time 0 (background, before enzyme)
PARAMETER_MEASURED: SIGNAL

### Prompt Need SIGNAL, item COC1(c2cccc(OP(=O)(O)O)c2)OOC12C1CC3CC(C1)CC2C3 (stereo not shown) [AMPPD, reference compound]
### Response 116.3

### Prompt Need SIGNAL, item COC1(c2cccc(OP(=O)(O)O)c2)OOC12C1CC3CC2CC(O)(C3)C1 (single isomer, unassigned) [B-OH-AMPPD]
### Response 134.0

### Prompt Need SIGNAL, item COC1(c2cccc(OP(=O)(O)O)c2)OOC12C1CC3CC2CC(O)(C3)C1 (single isomer, unassigned) [A-OH-AMPPD]
### Response 81.2

### Prompt Need SIGNAL, item COC1(c2cccc(OP(=O)(O)O)c2)OOC12C1CC3CC2CC(Cl)(C3)C1 (stereo not shown)
### Response 60.0

// provenance: patent US5326882A
